// data source = PubChem BioAssay

molecular target: Voltage-gated potassium channel subunit beta-2 (Rattus norvegicus) (UniProt P62483); assay: inhibitors of rat Kvbeta2 reductase activity – biochemical, NADPH fluorescence, primary screen (AID 622); details: recombinant KvBeta, 4-cyanobenzaldehyde reduction, at 10 µM, stronger effect = higher value;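 further: slope of raw intensity against log time taken from 70 to 1610 s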
Sequence (P62483 whole entry, looked up): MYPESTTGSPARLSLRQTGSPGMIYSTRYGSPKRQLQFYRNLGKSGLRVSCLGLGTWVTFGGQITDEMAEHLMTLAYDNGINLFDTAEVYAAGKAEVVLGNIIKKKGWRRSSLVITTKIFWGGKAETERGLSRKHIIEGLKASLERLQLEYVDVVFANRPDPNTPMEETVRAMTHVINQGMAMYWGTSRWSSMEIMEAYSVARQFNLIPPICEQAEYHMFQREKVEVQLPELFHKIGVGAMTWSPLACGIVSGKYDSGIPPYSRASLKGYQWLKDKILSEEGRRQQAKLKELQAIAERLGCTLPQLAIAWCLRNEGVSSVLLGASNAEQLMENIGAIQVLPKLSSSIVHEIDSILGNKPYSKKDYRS
PROPERTY_MEASURED: fluorescence slope
Give the value as a plain number.

Example entries and their recorded answers appear below.
>  <MOLECULE>
NCC1(CC(=O)O)CCCCC1

>  <TESTED_SYSTEM>
Voltage-gated potassium channel subunit beta-2 (Rattus norvegicus) (UniProt P62483)

>  <fluorescence slope>
-0.493

$$$$
>  <MOLECULE>
COc1ccccc1N(CC(=O)NC1CCCCC1)C(=O)c1cnn(C(C)C)c1

>  <TESTED_SYSTEM>
Voltage-gated potassium channel subunit beta-2 (Rattus norvegicus) (UniProt P62483)

>  <fluorescence slope>
-0.598

$$$$
>  <MOLECULE>
CC(C)Cc1[nH]c(=O)c(C#N)c2c1CCC2

>  <TESTED_SYSTEM>
Voltage-gated potassium channel subunit beta-2 (Rattus norvegicus) (UniProt P62483)

>  <fluorescence slope>
-0.439

$$$$
>  <MOLECULE>
O=c1[nH]c(O)c(C=NC2CCN(Cc3ccccc3)CC2)c(=O)[nH]1

>  <TESTED_SYSTEM>
Voltage-gated potassium channel subunit beta-2 (Rattus norvegicus) (UniProt P62483)

>  <fluorescence slope>
-0.409

$$$$

**Q:** Looking for the measured fluorescence slope of CC(=O)OC1N=C(c2ccccc2)c2ccccc2NC1=O (stereo unspecified) , can you help?
**A:** -0.509

**Q:** Entry Cc1nn(-c2ccccc2)c2c1CC1(C(=O)N(C)C(=O)N(C)C1=O)C1CCCCN21 (stereo unspecified) please
**A:** -0.509

**Q:** Note, next up: CCC(=NCCCN1CCOCC1)c1c(O)n(Cc2ccccc2)c(=O)[nH]c1=O
**A:** -0.629

**Q:** Thanks! And Nc1ccc(C2(c3ccc(N)cc3)CN3CCC2CC3)cc1 ?
**A:** -0.502

**Q:** Also, C[C@H]1CCCC(=O)CCC/C=C/c2cc(O)cc(O)c2C(=O)O1 please.
**A:** -0.55

**Q:** Proceed to CC(C)N(CCC(C(N)=O)(c1ccccc1)c1ccccn1)C(C)C (stereo unspecified)
**A:** -0.515

**Q:** And for C(#CCN1CCOCC1)COCC#Cc1ccccc1 ?
**A:** -0.622
